# System: HEK-293T
# Assay protocol: Multiplex assay against HEK293T
# Type: toxicity, cell-based
# Condition context: human, 48 h, 10 µM, compound concentration 10 uM, replicate 1
Listing of entries alongside the reported Population Normal (%).

Illustrative cases are given below, each with its answer.
Molecule	Recorded value
C[C@@]1(C(=O)Nc2ccc(F)nc2)CCCN1c1nc(Nc2cc(C3CC3)n[nH]2)c2cccn2n1	84%
COc1cccc([C@@H](C)NCCCc2ccccc2Cl)c1.Cl [TECALCET HYDROCHLORIDE]	89%
CC(C)NCC(O)COc1ccc(CCOCC2CC2)cc1.Cl (stereo not drawn) [BETAXOLOL HYDROCHLORIDE]	85%
Cc1c(-c2ccc(O)cc2)n(Cc2ccc(OCCN3CCCCCC3)cc2)c2ccc(O)cc12	76%
Cc1cc(C)cc(-c2cnc3cc(Cl)c(-c4cccc(O)c4)cc3c2OCCCN)c1	83%

Query block: Population Normal (%) for OC1(c2ccc(Cl)cc2)CCN(Cc2c[nH]c3ccccc23)CC1 ?
Result block: 81%

Query block: Field entry: CN1CCN(c2ccc(OC(F)(F)F)c(Nc3ncc4c(n3)-c3c(c(C(N)=O)nn3CCO)CC4)c2)CC1
Result block: 85%

Query block: Field entry: COc1cc2nccc(Oc3ccc(NC(=O)Nc4cc(C)on4)c(Cl)c3)c2cc1OC.O
Result block: 88%
